# credit: patent US7241791B2

Target: human ERα (Homo sapiens, UniProt P03372)
Sequence (P03372 whole entry): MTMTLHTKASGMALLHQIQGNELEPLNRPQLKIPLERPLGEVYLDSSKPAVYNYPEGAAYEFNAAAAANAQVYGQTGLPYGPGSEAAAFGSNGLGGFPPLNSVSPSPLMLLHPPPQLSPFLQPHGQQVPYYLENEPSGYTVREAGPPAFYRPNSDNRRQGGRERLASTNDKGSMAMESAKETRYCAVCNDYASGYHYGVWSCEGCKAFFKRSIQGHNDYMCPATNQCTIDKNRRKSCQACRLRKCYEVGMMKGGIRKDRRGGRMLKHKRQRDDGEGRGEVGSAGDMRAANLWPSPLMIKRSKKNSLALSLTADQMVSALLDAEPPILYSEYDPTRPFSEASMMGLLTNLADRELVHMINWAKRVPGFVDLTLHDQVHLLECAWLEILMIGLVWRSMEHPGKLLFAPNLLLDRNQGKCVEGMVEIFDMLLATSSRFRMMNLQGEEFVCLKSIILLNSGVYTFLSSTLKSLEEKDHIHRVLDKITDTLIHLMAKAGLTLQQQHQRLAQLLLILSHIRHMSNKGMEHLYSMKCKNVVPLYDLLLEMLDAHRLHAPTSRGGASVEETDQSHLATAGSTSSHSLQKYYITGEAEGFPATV
Test: NF-κB luciferase reporter (ER/NF-KB-luc) in Ad5-wt-hERα infected HAECT-1 cells
Settings: ER/NF-KB-luc IC50, Ad5-wt-ER infected HAECT-1 cells, IL-1β
pIC50: −log10 of the molar value.
measurement.name: pIC50

molecular.string | pIC50
CCc1ccc(-c2cccc3c(-c4ccc(O)cc4)nn(C4CCCC4)c23)cc1 | 7.49
CCCn1nc(-c2ccc(O)cc2)c2cccc(N3CCOCC3)c21 | 6.04
CC(C)n1nc(-c2ccc(O)cc2)c2cccc(-c3cccs3)c21 | 7.25

1. Oc1ccc(-c2nn(C3CCCC3)c3c(-c4ccccc4)cccc23)cc1
2. Oc1ccc(-c2nn(C3CCCC3)c3c(-c4ccco4)cccc23)cc1
Query block: Out of 1 and 2 , name the one with the higher pIC50. In your reply, give the label of the chosen option.
Result block: 1
(1: 7.96, 2: 7.48)
